- System: human TLR8 (Homo sapiens (Human))
- Method notes: TLR8 inhibition reporter assay (HEK-Blue SEAP reporter, R848 stimulation)
- Reported conditions: read-out: TLR8 IC50; HEK-Blue cells overexpressing human TLR8, R848 15.9 μM, SEAP reporter
Measured attribute: IC50 (nM)

>>> df
                                   molecule  measured_attribute  number
0  CCc1c(-c2ccc(OC)c(OC)c2)[nH]c2ccc(C(=O)NCCC3CCCN3C)cc12 (centres unmarked) [Example 54]                IC50      12
1  Cc1cc(-c2[nH]c3ccc(C(C)C(=O)NC4C[C@H]5CC[C@@H](C4)N5C)cc3c2C(C)C)ccn1 (some centres unmarked) [Example 214]                IC50     167
2  CCc1c(-c2ccc(OC)c(OC)c2)[nH]c2ccc(C(=O)N(C)Cc3cccnc3)cc12 [Example 22]                IC50     264

(1) Cc1cc(-c2[nH]c3ccc(C(C)(C)C(=O)N4CCC5(CCN(C)C5)CC4)cc3c2C(C)C)ccn1 [Example 150]
(2) Cc1cc(-c2[nH]c3ccc(C(=O)N4CCCN(C)CC4)cc3c2C(C)C)cc(C)n1 [Example 92]
Ask: Sorting ascending by IC50, which comes first: 1 or 2 ? Pick one and reply with its label.
Result: 2

----------
- System: human TLR8 (Homo sapiens (Human), UniProt Q9NR97)
- Sequence (Q9NR97 27-1041): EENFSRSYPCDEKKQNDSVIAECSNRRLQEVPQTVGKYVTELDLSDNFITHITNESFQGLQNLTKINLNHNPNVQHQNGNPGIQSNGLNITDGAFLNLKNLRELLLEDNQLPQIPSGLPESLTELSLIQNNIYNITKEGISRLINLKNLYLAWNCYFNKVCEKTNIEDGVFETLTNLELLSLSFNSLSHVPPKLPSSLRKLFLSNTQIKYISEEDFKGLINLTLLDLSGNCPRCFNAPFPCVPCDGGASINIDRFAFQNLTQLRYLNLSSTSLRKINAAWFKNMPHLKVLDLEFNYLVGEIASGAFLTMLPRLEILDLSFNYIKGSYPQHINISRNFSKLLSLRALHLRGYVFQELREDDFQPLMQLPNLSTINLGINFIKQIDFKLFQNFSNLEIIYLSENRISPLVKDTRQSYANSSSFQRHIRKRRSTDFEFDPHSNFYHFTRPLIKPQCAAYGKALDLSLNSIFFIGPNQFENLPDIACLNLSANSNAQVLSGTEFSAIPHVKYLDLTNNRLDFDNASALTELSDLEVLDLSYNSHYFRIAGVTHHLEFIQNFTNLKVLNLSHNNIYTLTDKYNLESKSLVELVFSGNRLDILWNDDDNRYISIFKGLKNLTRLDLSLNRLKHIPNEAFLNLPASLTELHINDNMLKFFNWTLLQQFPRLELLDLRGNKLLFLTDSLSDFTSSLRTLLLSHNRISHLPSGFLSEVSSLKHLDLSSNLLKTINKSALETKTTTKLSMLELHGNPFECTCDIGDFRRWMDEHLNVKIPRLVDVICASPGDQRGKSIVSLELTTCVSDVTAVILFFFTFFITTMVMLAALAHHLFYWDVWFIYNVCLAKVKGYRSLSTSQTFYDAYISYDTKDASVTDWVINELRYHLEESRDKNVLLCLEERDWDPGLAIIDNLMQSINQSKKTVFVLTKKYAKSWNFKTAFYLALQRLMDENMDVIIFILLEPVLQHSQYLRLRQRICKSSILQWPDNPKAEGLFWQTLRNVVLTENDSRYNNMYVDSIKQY
- Method notes: TLR8 inhibition reporter assay (HEK-Blue SEAP reporter, R848 stimulation)
- Reported conditions: read-out: TLR8 IC50; HEK-Blue cells overexpressing human TLR8, R848 15.9 μM, SEAP reporter
pIC50: −log10 of the molar value.
Measured attribute: pIC50

Consider the worked cases shown below.
>>> print(df.to_string())
                                   compound  number
0  COCCN(C)C(=O)c1ccc2[nH]c(-c3cc(C)nc(C)c3)c(C(C)C)c2c1 [Example 106]    6.98
1  Cc1cc(-c2[nH]c3ccc(C(=O)NCCCN(C)C)cc3c2C(C)C)cc(C)n1 [Example 95]    8.44
2  CCc1c(-c2ccc(OC)c(OC)c2)[nH]c2ccc(C(=O)Nc3cnn(C4COC4)c3)cc12 [Example 21]    6.88

(P) Cc1cc(-c2[nH]c3ccc(C(C)(C)C(=O)N4CC5CN(C)CC5C4)cc3c2C(C)C)ccn1 (centres unmarked) [Example 149]
(Q) CNC(=O)c1ccc2[nH]c(-c3cc(C)nc(C)c3)c(C(C)C)c2c1 [Example 97]
(R) CCc1c(-c2ccc(OC)c(OC)c2)[nH]c2ccc(C(=O)N3CCN(c4ccc(C(F)(F)F)cn4)CC3)cc12 [Example 61]
Ask: Give the ascending ranking of the items by reported pIC50. Order the labels as requested and give them as your answer.
Result: R, P, Q

(P) Cc1cc(-c2[nH]c3ccc(C(C)(C)C(=O)NC[C@@H](F)C(C)(C)O)cc3c2C(C)C)ccn1 [Example 133]
(Q) Cc1cc(-c2[nH]c3ccc(C(C)(C)C(=O)NC4CCNCC4)cc3c2C(C)C)ccn1 [Example 143]
Ask: Return label of the item with the larger pIC50. Candidates: P , Q . Respond with the label that goes with your answer.
Result: Q
(Q: 6.83, P: 6.40)

----------
- System: human TLR7 (Homo sapiens (Human), UniProt Q9NYK1)
- Sequence (Q9NYK1 27-1049): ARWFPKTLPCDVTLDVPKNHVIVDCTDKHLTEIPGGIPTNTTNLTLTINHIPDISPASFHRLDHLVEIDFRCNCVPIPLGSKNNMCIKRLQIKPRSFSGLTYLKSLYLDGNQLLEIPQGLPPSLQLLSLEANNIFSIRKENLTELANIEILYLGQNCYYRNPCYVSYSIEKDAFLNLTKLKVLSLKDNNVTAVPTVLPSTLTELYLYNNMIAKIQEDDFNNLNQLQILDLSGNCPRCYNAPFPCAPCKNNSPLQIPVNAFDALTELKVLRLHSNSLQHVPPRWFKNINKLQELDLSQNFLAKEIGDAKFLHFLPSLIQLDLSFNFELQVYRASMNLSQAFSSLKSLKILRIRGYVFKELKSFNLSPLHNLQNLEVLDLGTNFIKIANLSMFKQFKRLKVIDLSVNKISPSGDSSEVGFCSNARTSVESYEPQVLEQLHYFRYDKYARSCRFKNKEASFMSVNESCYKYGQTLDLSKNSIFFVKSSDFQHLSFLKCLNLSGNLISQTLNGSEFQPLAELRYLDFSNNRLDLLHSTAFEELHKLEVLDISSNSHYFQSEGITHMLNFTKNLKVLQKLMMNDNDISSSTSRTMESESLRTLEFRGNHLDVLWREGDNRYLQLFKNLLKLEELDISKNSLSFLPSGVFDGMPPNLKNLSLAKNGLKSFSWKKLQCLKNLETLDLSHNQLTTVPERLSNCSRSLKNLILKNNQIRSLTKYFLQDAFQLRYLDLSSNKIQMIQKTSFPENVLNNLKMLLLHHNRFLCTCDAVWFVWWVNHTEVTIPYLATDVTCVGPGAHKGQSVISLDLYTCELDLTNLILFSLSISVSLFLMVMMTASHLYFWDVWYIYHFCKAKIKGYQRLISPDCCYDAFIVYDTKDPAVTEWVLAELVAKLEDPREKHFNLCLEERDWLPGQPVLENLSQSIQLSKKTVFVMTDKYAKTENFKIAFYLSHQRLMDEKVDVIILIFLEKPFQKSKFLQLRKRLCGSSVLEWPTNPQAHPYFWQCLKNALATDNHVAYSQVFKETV
- Method notes: TLR7 inhibition reporter assay (HEK-Blue SEAP reporter, gardiquimod stimulation)
- Type: cell-based
- Reported conditions: HEK-Blue cells overexpressing human TLR7, gardiquimod 7.5 μM
Measured attribute: IC50 (nM)

Observe how each entry below is paired with its result.
>>> print(df.to_string())
                                   compound  uom  number
0  CCc1c(-c2ccc(OC)c(OC)c2)[nH]c2ccc(C(=O)N3CCN(C(=O)c4ccco4)CC3)cc12   nM     206
1  CCc1c(-c2ccc(OC)c(OC)c2)[nH]c2ccc(C(=O)NCc3ccccn3)cc12   nM    1940
2  CCc1c(-c2ccc(OC)c(OC)c2)[nH]c2ccc(C(=O)NCCN(C)C)cc12   nM     115
3  CCc1c(-c2ccc(OC)c(OC)c2)[nH]c2ccc(C(=O)N(C)Cc3csc(C4CCNCC4)n3)cc12   nM     362
4  CCc1c(-c2ccc(OC)c(OC)c2)[nH]c2ccc(C(=O)N3CCN(CCOC)CC3)cc12   nM    1140

(a) Cc1cc(-c2[nH]c3ccc(C(C)C(=O)N4CCC(CN)C4)cc3c2C(C)C)ccn1 (centres unmarked)
(b) Cc1cc(-c2[nH]c3ccc(C(C)(C)C(=O)NC4CCC5CNCC54)cc3c2C(C)C)ccn1 (centres unmarked) [Example 146]
Ask: Rank a against b by their IC50 values and give the higher one. Returns: label corresponding to the selected item.
Result: a
(a: 443 nM, b: 160 nM)

----------
- System: human TLR7 (Homo sapiens (Human), UniProt Q9NYK1)
- Method notes: TLR7 inhibition reporter assay (HEK-Blue SEAP reporter, gardiquimod stimulation)
- Assay type: cell-based
- Reported conditions: HEK-Blue cells overexpressing human TLR7, gardiquimod 7.5 μM
pIC50: −log10 of the molar value.
Measured attribute: pIC50

In [3]: df
Out[3]:
                                   compound  measured_attribute  number
0  Cc1cc(-c2[nH]c3ccc(C(C)(C)C(=O)NCC4CCCNC4)cc3c2C(C)C)ccn1 (stereo not shown)               pIC50    6.62

(I) Cc1cc(-c2[nH]c3ccc(C(=O)N(C)CCc4ccccc4)cc3c2C(C)C)cc(C)n1
(II) CCc1c(-c2ccc(OC)c(OC)c2)[nH]c2ccc(C(=O)N3CCC[C@H]3CO)cc12
(III) Cc1cc(-c2[nH]c3ccc(C(C)(C)C(=O)NCCN)cc3c2C(C)C)ccn1
Ask: In this exercise, place the 3 compounds in ascending sequence of their recorded pIC50. When ranking, write the labels in the order the request describes.
Result: II, I, III
(II: 5.87, I: 6.73, III: 7.20)

----------
- System: human TLR8 (Homo sapiens (Human), UniProt Q9NR97)
- Method notes: TLR8 inhibition reporter assay (HEK-Blue SEAP reporter, R848 stimulation);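 further: SEAP driven by IFN-β minimal promoter with NF-κB and AP-1 sites, 22 h incubation, compounds 0.05 nM–50 µM, inhibition scaled between agonist plus DMSO and reference inhibitor wells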
- Reported conditions: read-out: TLR8 IC50; HEK-Blue cells overexpressing human TLR8, R848 15.9 μM, SEAP reporter
Measured attribute: IC50 (µM)

>>> print(df.to_string())
                                   molecule  number
0  CCc1c(-c2ccc(OC)c(OC)c2)[nH]c2ccc(C(=O)N3CCN(C4CCN(C(C)C)CC4)CC3)cc12 [Example 80]  0.0029
1  Cc1cc(-c2[nH]c3ccc(C(C)C(=O)NC4CCC5CNCC54)cc3c2C(C)C)ccn1 (stereo not shown) [Example 187]   0.496
2  CCc1c(-c2ccc(OC)c(OC)c2)[nH]c2ccc(C(=O)N(C)CCCN(C)C)cc12 [Example 74]   0.016
3  CC(C)c1c(-c2ccnc(N)c2)[nH]c2ccc(C(=O)NC3CCC(N(C)C)CC3)cc12 (stereo not shown) [Example 87]   0.027
4  COc1ccc(-c2[nH]c3ccc(C(=O)N(C)C)cc3c2C(C)C)cc1OC [Example 3]   0.079
5  Cc1cc(-c2[nH]c3ccc(C(=O)N(C)CCO)cc3c2C(C)C)cc(C)n1 [Example 105]   0.059
6  Cc1cc(-c2[nH]c3ccc(C(C)(C)C(=O)NC4CCC5CNCC54)cc3c2C(C)C)ccn1 (stereo not shown) [Example 144]   0.064
7  Cc1cc(-c2[nH]c3ccc(C(C)(C)C(=O)NCC4(O)CN5CCC4CC5)cc3c2C(C)C)ccn1 (stereo not shown) [Example 174]    0.55
8  Cc1cc(-c2[nH]c3ccc(C(C)(C)C(=O)NC4CCN(C(C)C)CC4)cc3c2C(C)C)ccn1 [Example 139]   0.154
9  Cc1cc(-c2[nH]c3ccc(C(=O)N(C)C)cc3c2C(C)C)cc(C)n1 [Example 94]   0.023

(a) Cc1cc(-c2[nH]c3ccc(C(C)(C)C(=O)N4CCCC5(CCCCC5N)C4)cc3c2C(C)C)ccn1 (stereo not shown) [Example 152]
(b) Cc1cc(-c2[nH]c3ccc(C(C)C(=O)N4CCCC(CCN)C4)cc3c2C(C)C)ccn1 (stereo not shown) [Example 206]
Ask: Return label of the item with the larger IC50. Candidates: a , b . Answer = label.
Result: b

(a) Cc1cc(-c2[nH]c3ccc(C(C)(C)C(=O)NC4CCC5CNCC54)cc3c2C(C)C)ccn1 (stereo not shown) [Example 147]
(b) Cc1cc(-c2[nH]c3ccc(C(C)(C)C(=O)N4CCCC(CN)C4)cc3c2C(C)C)ccn1 (stereo not shown) [Example 156]
Ask: Larger number for IC50: a , or b ? Your answer should be the label of the entry you select.
Result: a
(a: 0.092 µM, b: 0.052 µM)
